B1: SMG5 (parent)
chain: TNPDLIIVCAQSSQSLWNRLSVLL

- Variants of: B1
- protocol_notes: protein stability index of a GFP-peptide fusion (GPS, HEK-293T) (PSI 1-6); higher = more stable;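 note: lentivirally expressed fusions sorted by FACS into six bins by GFP to DsRed ratio, PSI derived from sequencing read proportions per bin multiplied by bin number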
- assay_conditions: c terminus: a fixed tail appended
measured_quantity: protein stability index

- changes: "V22C"
  measured_quantity: "protein stability index"
  value_observed: 3.03
- changes: "V8Q"
  measured_quantity: "protein stability index"
  value_observed: 1.85
- changes: "C9V"
  measured_quantity: "protein stability index"
  value_observed: 2.69
- changes: "I7D"
  measured_quantity: "protein stability index"
  value_observed: 1.7
- changes: "P3N"
  measured_quantity: "protein stability index"
  value_observed: 2.52
- changes: "N18W"
  measured_quantity: "protein stability index"
  value_observed: 1.92
- changes: "V22A"
  measured_quantity: "protein stability index"
  value_observed: 2
- changes: "Q14K"
  measured_quantity: "protein stability index"
  value_observed: 3.23
- changes: "Q11L"
  measured_quantity: "protein stability index"
  value_observed: 3.05
- changes: "S13N"
  measured_quantity: "protein stability index"
  value_observed: 2.7
- changes: "V8M"
  measured_quantity: "protein stability index"
  value_observed: 1.46
- changes: "T1N"
  measured_quantity: "protein stability index"
  value_observed: 3.25
- changes: "C9S"
  measured_quantity: "protein stability index"
  value_observed: 3.03
- changes: "W17I"
  measured_quantity: "protein stability index"
  value_observed: 2.47
- changes: "N2G"
  measured_quantity: "protein stability index"
  value_observed: 2.66
- changes: "W17E"
  measured_quantity: "protein stability index"
  value_observed: 3
- changes: "S12C"
  measured_quantity: "protein stability index"
  value_observed: 3.33
- changes: "A10M"
  measured_quantity: "protein stability index"
  value_observed: 2.8
- changes: "C9M"
  measured_quantity: "protein stability index"
  value_observed: 1.76
- changes: "N2D"
  measured_quantity: "protein stability index"
  value_observed: 3.01
- changes: "L5P"
  measured_quantity: "protein stability index"
  value_observed: 2.94
- changes: "Q11R"
  measured_quantity: "protein stability index"
  value_observed: 2.19
